Assay: in vitro
Conditions: dog, MDCK-MDR1
Description: Efflux ratio of apparent permeability across basolateral to apical over apical to basolateral side in MDCK cells overexpressing MDR1
Recorded endpoint: efflux ratio

Input smiles | Measured value
CNCCCOc1ccc(-c2ccc3ncc4c(c3c2)n([C@H]2C[C@@H](OC)C2)c(=O)n4C)cn1 | 41
COCc1ccc(-c2cc3c(cc2F)ncc2c3n(C3CCOCC3)c(=O)n2C)cn1 | 0.8
CO[C@H]1C[C@@H](n2c(=O)n(C)c3cnc4cc(F)c(-c5ccc(CO)nc5)cc4c32)C1 | 1.1
CO[C@H]1C[C@@H](n2c(=O)n(C)c3cnc4ccc(-c5ccc(OCCCN6CCC6)nc5)cc4c32)C1 | 7.8
CO[C@H]1C[C@@H](n2c(=O)n(C)c3cnc4cc(F)c(-c5ccc(CS(C)(=O)=O)nc5)cc4c32)C1 | 2.4
COCc1ccc(-c2cc3c(cc2F)ncc2c3n([C@@H](C)C3CCOCC3)c(=O)n2C)cn1 | 0.8
CN(C)CCCOc1ccc(-c2cc3c(cc2F)ncc2c3n(C3CCOCC3)c(=O)n2C)cn1 | 4.4
CO[C@H]1C[C@@H](n2c(=O)n(C)c3cnc4cc(F)c(-c5ccc(OCCCN(C)C)nc5)cc4c32)C1 | 6.2
CO[C@H]1C[C@@H](n2c(=O)n(C)c3cnc4ccc(-c5ccc(OCCCN(C)C)nc5)cc4c32)C1 | 3
CO[C@H]1C[C@@H](n2c(=O)n(C)c3cnc4cc(F)c(-c5ccc(NC(=O)CCCN(C)C)nc5)cc4c32)C1 | 77
COCc1ccc(-c2cc3c(cc2F)ncc2c3n([C@H]3CC[C@H](OC)CC3)c(=O)n2C)cn1 | 0.6
COCc1ccc(-c2cc3c(N[C@@H](C)c4ccn(C)n4)c(C(N)=O)cnc3cc2F)cn1 | 8.7
CO[C@H]1C[C@@H](n2c(=O)n(C)c3cnc4cc(F)c(-c5ccc(C(=O)NCCN(C)C)nc5)cc4c32)C1 | 11
Cn1c(=O)n(C2CCOCC2)c2c3cc(-c4ccc(OCCCN5CCCCC5)nc4)c(F)cc3ncc21 | 2.2
CN(C)CCCOc1ccc(-c2ccc3ncc4c(c3c2)n([C@H]2C[C@@H](O)C2)c(=O)n4C)cn1 | > 100
CN(C)CCCOc1ccc(-c2ccc3ncc4c(c3c2)n(C2COC2)c(=O)n4C)cn1 | 9.8
Cn1c(=O)n([C@H]2CCCOC2)c2c3cc(-c4ccc(OCCCN5CCCCC5)nc4)c(F)cc3ncc21 | 1.4

###

Assay: AUC (0 to 12 hrs) in patient with solid tumor at 120 mg, po bid by LC-MS/MS analysis
Type: ADME, organism-based
Set-up: dose 120 mg, time < 12 hr, route oral
Conditions: human, in vivo

Input smiles | AUC at 12 h / ng·h/mL
CN(C)CCCOc1ccc(-c2ccc3ncc4c(c3c2)n(C2CCOCC2)c(=O)n4C)cn1 | 330

###

Assay: Intrinsic clearance in rat hepatocytes assessed per million cells
Short version: hepatocyte CLint at least 6 µL/min/1e6 cells is True, less is False.

Input smiles | Category label
CO[C@H]1C[C@@H](n2c(=O)n(C)c3cnc4cc(F)c(-c5ccc(OCCCN(C)C)nc5)cc4c32)C1 | True
CO[C@H]1C[C@@H](n2c(=O)n(C)c3cnc4ccc(-c5ccc(OCCCN6CCC6)nc5)cc4c32)C1 | False
CO[C@H]1C[C@@H](n2c(=O)n(C)c3cnc4cc(F)c(-c5ccc(NC(=O)CCCN(C)C)nc5)cc4c32)C1 | True
CO[C@H]1C[C@@H](n2c(=O)n(C)c3cnc4ccc(-c5ccc(OCCCN(C)C)nc5)cc4c32)C1 | False
COCc1ccc(-c2cc3c(cc2F)ncc2c3n([C@H]3C[C@@H](OC)C3)c(=O)n2C)cn1 | False
Cn1c(=O)n(C2CCOCC2)c2c3cc(-c4ccc(OCCCN5CCCCC5)nc4)c(F)cc3ncc21 | False
CN(C)CCCOc1ccc(-c2ccc3ncc4c(c3c2)n([C@H]2C[C@@H](O)C2)c(=O)n4C)cn1 | False
CO[C@H]1C[C@@H](n2c(=O)n(C)c3cnc4ccc(-c5ccc(OCCCN6CCCC6)nc5)cc4c32)C1 | False
CN(C)CCCOc1ccc(-c2cc3c(cc2F)ncc2c3n(C3CCOCC3)c(=O)n2C)cn1 | True
CN(C)CCCOc1ccc(-c2ccc3ncc4c(c3c2)n(C2COC2)c(=O)n4C)cn1 | True
CO[C@H]1C[C@@H](n2c(=O)n(C)c3cnc4ccc(-c5ccc(OCCCN6CCCCC6)nc5)cc4c32)C1 | False
CO[C@H]1C[C@@H](n2c(=O)n(C)c3cnc4cc(F)c(-c5ccc(CS(C)(=O)=O)nc5)cc4c32)C1 | False
CO[C@H]1C[C@@H](n2c(=O)n(C)c3cnc4ccc(-c5ccc(OCCCN6CCC(O)CC6)nc5)cc4c32)C1 | False
CO[C@H]1C[C@@H](n2c(=O)n(C)c3cnc4cc(F)c(-c5ccc(OCCCN(C)C)nc5F)cc4c32)C1 | True
CN(C)CCCOc1ccc(-c2ccc3nnc4c(c3c2)n(C2CCOCC2)c(=O)n4C)cn1 | False
CO[C@H]1C[C@@H](n2c(=O)n(C)c3cnc4cc(F)c(-c5ccc(C(=O)NCCN(C)C)nc5)cc4c32)C1 | False

###

Biological target: Phosphatidylinositol 4,5-bisphosphate 3-kinase catalytic subunit gamma isoform (Homo sapiens)
Sequence (P48736 whole entry, the tested form may be a part, canonical isoform): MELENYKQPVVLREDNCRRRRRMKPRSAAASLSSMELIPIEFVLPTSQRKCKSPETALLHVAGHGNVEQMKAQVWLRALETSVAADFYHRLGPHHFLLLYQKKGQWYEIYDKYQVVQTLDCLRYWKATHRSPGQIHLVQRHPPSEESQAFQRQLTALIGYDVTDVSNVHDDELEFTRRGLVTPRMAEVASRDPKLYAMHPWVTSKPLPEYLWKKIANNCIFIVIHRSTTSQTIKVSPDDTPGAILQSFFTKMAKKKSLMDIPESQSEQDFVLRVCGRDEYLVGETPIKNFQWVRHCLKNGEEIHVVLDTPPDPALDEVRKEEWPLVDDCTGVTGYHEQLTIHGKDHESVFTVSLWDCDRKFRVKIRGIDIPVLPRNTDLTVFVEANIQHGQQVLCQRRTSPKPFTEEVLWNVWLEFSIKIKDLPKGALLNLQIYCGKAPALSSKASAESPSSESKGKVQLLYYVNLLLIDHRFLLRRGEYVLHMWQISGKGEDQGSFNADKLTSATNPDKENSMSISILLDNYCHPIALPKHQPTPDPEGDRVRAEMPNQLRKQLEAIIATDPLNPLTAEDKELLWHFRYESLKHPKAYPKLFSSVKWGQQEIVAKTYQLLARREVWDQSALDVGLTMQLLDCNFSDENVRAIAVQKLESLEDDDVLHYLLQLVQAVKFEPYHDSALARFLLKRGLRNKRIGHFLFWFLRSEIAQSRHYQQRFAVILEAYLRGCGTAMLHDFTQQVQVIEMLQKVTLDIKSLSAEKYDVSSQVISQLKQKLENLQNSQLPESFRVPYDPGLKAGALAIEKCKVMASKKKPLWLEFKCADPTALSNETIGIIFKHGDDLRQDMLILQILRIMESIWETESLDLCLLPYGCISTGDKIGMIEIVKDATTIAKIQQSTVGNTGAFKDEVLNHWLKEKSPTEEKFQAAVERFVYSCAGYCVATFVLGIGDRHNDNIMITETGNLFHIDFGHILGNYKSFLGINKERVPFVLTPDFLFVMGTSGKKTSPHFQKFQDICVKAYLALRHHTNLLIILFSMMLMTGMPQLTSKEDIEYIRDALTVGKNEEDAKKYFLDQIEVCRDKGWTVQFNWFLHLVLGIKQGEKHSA
Test: Inhibition of human PI3Kgamma (S144 to A1102 residues) expressed in mammalian expression system
pIC50: −log10 of the molar value.

Input smiles | pIC50
CN(C)CCCOc1ccc(-c2ccc3ncc4c(c3c2)n(C2CCOCC2)c(=O)n4C)cn1 | 5.96

###

# hepatocyte CLint annotations
Experiment: Intrinsic clearance in rat hepatocytes assessed per million cells

Input smiles | hepatocyte CLint, µL/min/1e6 cells
Cn1c(=O)n(C2CCOCC2)c2c3cc(-c4cccnc4)ccc3ncc21 | 9.4
CN(C)CCCOc1ccc(-c2ccc3ncc4c(c3n2)n(C2CCOCC2)c(=O)n4C)cn1 | 9.2
CN(C)CCCOc1ccc(-c2ccc3ncc4c(c3c2)n([C@H]2CCCOC2)c(=O)n4C)cn1 | 3
CO[C@H]1C[C@@H](n2c(=O)n(C)c3cnc4ccc(-c5ccc(OCCCN6CCOCC6)nc5)cc4c32)C1 | 28

###

Assay: Solubility of the compound in FaSSIF
Type: physicochemical

Input smiles | solubility
CN(C)CCCOc1ccc(-c2ccc3ncc4c(c3c2)n(C2CCOCC2)c(=O)n4C)cn1 | > 5000 µg/mL

###

Assay: Apparent permeability across apical to basolateral side in human Caco2 cells at pH 6.5
Type: ADME, cell-based
Conditions: Caco-2, pH 6.5

Input smiles | Papp A→B [×10⁻⁶ cm/s]
CN(C)CCCOc1ccc(-c2ccc3ncc4c(c3c2)n(C2CCOCC2)c(=O)n4C)cn1 | 19

###

Test: Volume of distribution at steady state in dog
Type: ADME, organism-based, Canis lupus familiaris
Settings: in vivo, read-out: Vdss
Recorded endpoint: Vd (L/kg)

Input smiles | Measured value
CN(C)CCCOc1ccc(-c2ccc3ncc4c(c3c2)n(C2CCOCC2)c(=O)n4C)cn1 | 17.6
CO[C@H]1C[C@@H](n2c(=O)n(C)c3cnc4ccc(-c5ccc(OCCCN(C)C)nc5)cc4c32)C1 | 11

###

Test: Cmax in patient with solid tumor at 60 mg, po bid by LC-MS/MS analysis
Type: ADME, organism-based
Set-up: dose 60 mg, route oral
Details: human, in vivo

Input smiles | Cmax, ng/mL
CN(C)CCCOc1ccc(-c2ccc3ncc4c(c3c2)n(C2CCOCC2)c(=O)n4C)cn1 | 39.6

###

Entries below carry reported IC50 on Voltage-gated inwardly rectifying potassium channel KCNH2 (Homo sapiens, UniProt Q12809).
Sequence (Q12809 whole entry): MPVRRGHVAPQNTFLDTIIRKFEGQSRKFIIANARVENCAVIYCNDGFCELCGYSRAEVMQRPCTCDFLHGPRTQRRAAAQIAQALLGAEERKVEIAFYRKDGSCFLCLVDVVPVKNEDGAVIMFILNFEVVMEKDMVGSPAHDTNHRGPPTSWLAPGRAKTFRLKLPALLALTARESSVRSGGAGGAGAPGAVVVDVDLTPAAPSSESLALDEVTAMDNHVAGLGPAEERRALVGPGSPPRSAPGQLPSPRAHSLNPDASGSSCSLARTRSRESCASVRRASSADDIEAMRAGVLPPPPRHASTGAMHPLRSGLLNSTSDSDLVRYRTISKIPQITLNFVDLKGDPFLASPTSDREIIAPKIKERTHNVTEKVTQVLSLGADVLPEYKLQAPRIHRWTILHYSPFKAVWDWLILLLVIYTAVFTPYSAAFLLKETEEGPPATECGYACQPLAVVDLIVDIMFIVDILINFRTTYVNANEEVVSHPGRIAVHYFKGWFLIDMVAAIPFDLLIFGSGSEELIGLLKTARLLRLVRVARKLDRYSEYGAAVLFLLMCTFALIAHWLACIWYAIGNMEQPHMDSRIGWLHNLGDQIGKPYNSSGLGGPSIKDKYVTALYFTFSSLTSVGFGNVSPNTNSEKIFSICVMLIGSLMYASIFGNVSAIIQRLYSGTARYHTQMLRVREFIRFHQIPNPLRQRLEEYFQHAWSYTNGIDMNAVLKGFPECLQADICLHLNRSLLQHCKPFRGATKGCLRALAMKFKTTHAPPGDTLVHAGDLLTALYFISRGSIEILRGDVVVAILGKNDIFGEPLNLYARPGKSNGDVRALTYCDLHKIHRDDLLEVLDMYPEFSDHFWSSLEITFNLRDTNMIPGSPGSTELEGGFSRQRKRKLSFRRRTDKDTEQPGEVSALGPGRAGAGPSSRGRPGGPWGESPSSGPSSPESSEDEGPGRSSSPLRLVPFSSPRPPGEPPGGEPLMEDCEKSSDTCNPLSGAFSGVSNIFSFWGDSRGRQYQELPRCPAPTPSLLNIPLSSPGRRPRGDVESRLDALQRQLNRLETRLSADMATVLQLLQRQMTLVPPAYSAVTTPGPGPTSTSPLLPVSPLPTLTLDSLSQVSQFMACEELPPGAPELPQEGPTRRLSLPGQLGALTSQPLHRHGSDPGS
Recorded endpoint: IC50 (µM)

Input smiles | Unit text | Measured value
CO[C@H]1C[C@@H](n2c(=O)n(C)c3cnc4cc(F)c(-c5ccc(NC(=O)CCCN(C)C)nc5)cc4c32)C1 | µM | 18
COCc1ccc(-c2cc3c(cc2F)ncc2c3n([C@H]3C[C@H](OC)C3)c(=O)n2C)cn1 | µM | 8.9
COCc1ccc(-c2cc3c(cc2F)ncc2c3n([C@H]3C[C@@H](OC)C3)c(=O)n2C)cn1 | µM | 9
COCc1ccc(-c2cc3c(cc2F)ncc2c3n([C@@H](C)C3CCOCC3)c(=O)n2C)cn1 | µM | 15

###

# half-life annotations
Experiment: in vivo
Settings: rat

Input smiles | half-life (h)
COCc1ccc(-c2cc3c(cc2F)ncc2c3n([C@H]3C[C@@H](OC)C3)c(=O)n2C)cn1 | 2.7
CO[C@H]1C[C@@H](n2c(=O)n(C)c3cnc4ccc(-c5ccc(OCCCN(C)C)nc5)cc4c32)C1 | 5

###

Experiment: Intrinsic clearance in human hepatocytes assessed per million cells
# hepatocyte CLint annotations

Input smiles | Unit text | Result qualifier | hepatocyte CLint
CN(C)CCCOc1ccc(-c2ccc3ncc4c(c3c2)n([C@H]2CCCOC2)c(=O)n4C)cn1 | µL/min/1e6 cells | = | 6.1
CO[C@H]1C[C@@H](n2c(=O)n(C)c3cnc4cc(F)c(-c5ccc(OCCCN(C)C)nc5)cc4c32)C1 | µL/min/1e6 cells | = | 7.9
COCc1ccc(-c2ccc3ncc4c(c3c2)n(C2CCOCC2)c(=O)n4C)cn1 | µL/min/1e6 cells | < | 3
COCc1ccc(-c2cc3c(cc2F)ncc2c3n([C@H]3C[C@@H](OC)C3)c(=O)n2C)cn1 | µL/min/1e6 cells | = | 8.8
CO[C@H]1C[C@@H](n2c(=O)n(C)c3cnc4ccc(-c5ccc(OCCCN(C)C)nc5)cc4c32)C1 | µL/min/1e6 cells | = | 8.7
CO[C@H]1C[C@@H](n2c(=O)n(C)c3cnc4cc(F)c(-c5ccc(OCCN(C)C)nc5)cc4c32)C1 | µL/min/1e6 cells | = | 8.3
CO[C@H]1C[C@@H](n2c(=O)n(C)c3cnc4cc(F)c(-c5ccc(NC(=O)CCCN(C)C)nc5)cc4c32)C1 | µL/min/1e6 cells | = | 6.5
NC(=O)c1cnc2ccc(-c3cccnc3)cc2c1NC1CCOCC1 | µL/min/1e6 cells | < | 4
CN(C)CCCOc1ccc(-c2ccc3ncc4c(c3c2)n([C@H]2C[C@@H](O)C2)c(=O)n4C)cn1 | µL/min/1e6 cells | = | 3.5
CO[C@H]1C[C@@H](n2c(=O)n(C)c3cnc4cc(F)c(-c5ccc(NCCN(C)C)nc5)cc4c32)C1 | µL/min/1e6 cells | = | 2.8
COCc1ccc(-c2cc3c(cc2F)ncc2c3n(C3CCOCC3)c(=O)n2C)cn1 | µL/min/1e6 cells | < | 4
CO[C@H]1C[C@@H](n2c(=O)n(C)c3cnc4ccc(-c5ccc(OCCCN6CCCCC6)nc5)cc4c32)C1 | µL/min/1e6 cells | = | 3
COCc1ccc(-c2cc3c(cc2F)ncc2c3n([C@H]3CC[C@H](OC)CC3)c(=O)n2C)cn1 | µL/min/1e6 cells | = | 10
COCc1ccc(-c2cc3c(cc2F)ncc2c3n([C@@H](C)C3CCOCC3)c(=O)n2C)cn1 | µL/min/1e6 cells | = | 22
Cn1c(=O)n(C2CCOCC2)c2c3cc(-c4cccnc4)ccc3ncc21 | µL/min/1e6 cells | < | 4.9
CNCCCOc1ccc(-c2ccc3ncc4c(c3c2)n([C@H]2C[C@@H](OC)C2)c(=O)n4C)cn1 | µL/min/1e6 cells | = | 4.4
Cn1c(=O)n(C2CCOCC2)c2c3cc(-c4ccc(OCCCN5CCCCC5)nc4)c(F)cc3ncc21 | µL/min/1e6 cells | = | 5.3
CO[C@H]1C[C@@H](n2c(=O)n(C)c3cnc4cc(F)c(-c5ccc(C(=O)NCCN(C)C)nc5)cc4c32)C1 | µL/min/1e6 cells | = | 4
CO[C@H]1C[C@@H](n2c(=O)n(C)c3cnc4cc(F)c(-c5ccc(N(C)CCN(C)C)nc5)cc4c32)C1 | µL/min/1e6 cells | = | 5.1
CN(C)CCCOc1ccc(-c2ccc3nnc4c(c3c2)n(C2CCOCC2)c(=O)n4C)cn1 | µL/min/1e6 cells | < | 1
COCc1ccc(-c2cc3c(cc2F)ncc2c3n([C@H]3C[C@H](OC)C3)c(=O)n2C)cn1 | µL/min/1e6 cells | = | 8.4
CN(C)CCCOc1ccc(-c2cc3c(cc2F)ncc2c3n(C3CCOCC3)c(=O)n2C)cn1 | µL/min/1e6 cells | = | 6.8
CN(C)CCCOc1ccc(-c2ccc3ncc4c(c3c2)n([C@@H]2CCCOC2)c(=O)n4C)cn1 | µL/min/1e6 cells | = | 5.6
